These data points were gathered from the supplement of paper PMC11061612.

- Test system: CCK-81 (Colorectal Carcinoma)
- ASSAY METHOD TEXT: combination Emax (second highest fraction inhibited in the dose matrix, 72 h); higher = more inhibition; extreme values may be limits of the assay
OBSERVATION TYPE: combination Emax
Write the value as a bare number.

N#Cc1cnc(Nc2cc(NC[C@H]3CNCCO3)c(C(F)(F)F)cn2)cn1 [SRA737] + C=CCn1c(=O)c2cnc(Nc3ccc(N4CCN(C)CC4)cc3)nc2n1-c1cccc(C(C)(C)O)n1 [AZD1775] (first compound max 10 µM, partner max 1 µM) ... 0.916
CC1(C)CCC(CN2CCN(c3ccc(C(=O)NS(=O)(=O)c4ccc(NCC5CCOCC5)c([N+](=O)[O-])c4)c(Oc4cnc5[nH]ccc5c4)c3)CC2)=C(c2ccc(Cl)cc2)C1 [Venetoclax] + C[C@@H]1COCCN1C2=NC(=NC(=C2)C3(CC3)[S@](=N)(=O)C)C4=C5C=CNC5=NC=C4 [AZD6738] (first compound max 1 µM, 7x7, partner max 10 µM) ... 0.846
C[C@@H]1COCCN1c1cc(C2([S@](C)(=N)=O)CC2)nc(-c2ccnc3[nH]ccc23)n1 [AZD6738] + Nc1ccn([C@@H]2O[C@H](CO)[C@@H](O)C2(F)F)c(=O)n1 [Gemcitabine] (first compound max 10 µM, 7x7, partner max 0.3 µM) ... 0.888

Prompt: If you can, please state the reported combination Emax value of Cc1c2c(nn1C)CSCc1cc(n(C)n1)CSc1cc(c3ccccc3c1)OCCCc1c(C(=O)O)n(C)c3c-2c(Cl)ccc13 [AZD5991] + CS(=O)(=O)CCNCc1ccc(-c2ccc3ncnc(Nc4ccc(OCc5cccc(F)c5)c(Cl)c4)c3c2)o1 [Lapatinib] (first compound max 1 µM, 7x7, partner max 10 µM) .
Response: 1

Prompt: If you can, please state the reported combination Emax value of CN(CCO)CC[C@H](CSc1ccccc1)Nc1ccc(S(=O)(=O)NC(=O)c2ccc(N3CCC([C@@H](O)c4ccccc4-c4ccc(Cl)cc4)CC3)cc2)cc1S(=O)(=O)C(F)(F)F [AZD4320] + C[C@@H]1COCCN1C2=NC(=NC(=C2)C3(CC3)[S@](=N)(=O)C)C4=C5C=CNC5=NC=C4 [AZD6738] (first compound max 1 µM, 7x7, partner max 10 µM) .
Response: 0.828

Prompt: If you can, please state the reported combination Emax value of N#Cc1cnc(Nc2cc(NC[C@H]3CNCCO3)c(C(F)(F)F)cn2)cn1 [SRA737] + O=c1[nH]cc(F)c(=O)[nH]1 [5-Fluorouracil] (first compound max 10 µM, 7x7, partner max 20 µM) .
Response: 0.855

Prompt: If you can, please state the reported combination Emax value of CN(C)CCCOc1ccc(-c2ccc3ncc4c(c3c2)n(C2CCOCC2)c(=O)n4C)cn1 [AZD0156] + C=CCn1c(=O)c2cnc(Nc3ccc(N4CCN(C)CC4)cc3)nc2n1-c1cccc(C(C)(C)O)n1 [AZD1775] (first compound max 1 µM, partner max 1 µM) .
Response: 0.903

Prompt: If you can, please state the reported combination Emax value of NC1(C(=O)N[C@@H](CCO)c2ccc(Cl)cc2)CCN(c2ncnc3[nH]ccc23)CC1 [Capivasertib] + C[C@@H]1COCCN1C2=NC(=NC(=C2)C3(CC3)[S@](=N)(=O)C)C4=C5C=CNC5=NC=C4 [AZD6738] (first compound max 10 µM, 7x7, partner max 10 µM) .
Response: 0.857
